System Tested: β-galactosidase (Escherichia coli, UniProt P00722)
Sequence (P00722 2-1024): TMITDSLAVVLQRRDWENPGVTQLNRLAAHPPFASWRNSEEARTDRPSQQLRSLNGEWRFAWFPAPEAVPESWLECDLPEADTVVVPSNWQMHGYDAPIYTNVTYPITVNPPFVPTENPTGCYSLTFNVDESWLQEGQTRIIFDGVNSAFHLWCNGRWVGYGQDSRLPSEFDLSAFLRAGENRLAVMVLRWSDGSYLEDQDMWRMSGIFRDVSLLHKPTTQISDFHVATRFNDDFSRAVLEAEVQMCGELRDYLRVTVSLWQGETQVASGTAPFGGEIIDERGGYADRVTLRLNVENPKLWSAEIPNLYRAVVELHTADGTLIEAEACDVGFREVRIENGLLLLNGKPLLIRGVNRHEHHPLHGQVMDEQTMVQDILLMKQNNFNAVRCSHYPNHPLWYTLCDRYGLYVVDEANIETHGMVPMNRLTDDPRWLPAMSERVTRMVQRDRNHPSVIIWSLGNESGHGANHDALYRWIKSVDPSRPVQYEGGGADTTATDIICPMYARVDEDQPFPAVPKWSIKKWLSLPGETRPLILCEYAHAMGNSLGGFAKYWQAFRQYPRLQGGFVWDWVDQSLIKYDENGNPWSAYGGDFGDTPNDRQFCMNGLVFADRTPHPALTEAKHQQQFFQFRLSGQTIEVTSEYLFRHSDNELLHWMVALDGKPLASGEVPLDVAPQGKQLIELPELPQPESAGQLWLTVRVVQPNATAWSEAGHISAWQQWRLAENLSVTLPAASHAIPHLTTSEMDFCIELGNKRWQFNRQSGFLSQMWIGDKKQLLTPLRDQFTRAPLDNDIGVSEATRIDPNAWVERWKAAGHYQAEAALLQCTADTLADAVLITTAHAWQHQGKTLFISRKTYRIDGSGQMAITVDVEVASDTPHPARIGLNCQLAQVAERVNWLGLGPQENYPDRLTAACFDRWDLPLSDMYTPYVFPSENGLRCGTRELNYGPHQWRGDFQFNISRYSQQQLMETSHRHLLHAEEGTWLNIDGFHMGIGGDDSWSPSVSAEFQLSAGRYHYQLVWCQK
Experimental Protocol: Kinetic properties of substrates with β-galactosidase
Type: biochemical
Measurement Setup: relative to ONPG
In this section, each of the compounds is paired with its reported Vm Ratio to ONPG.
Answer field: number only, no words.

compound="O=Cc1cc([N+](=O)[O-])ccc1O[C@@H]1O[C@H](CO)[C@H](O)[C@H](O)[C@H]1O [NSPG]" metric_name="Vm Ratio to ONPG" observed_value=3.2
compound="COc1cc([N+](=O)[O-])ccc1O[C@@H]1O[C@H](CO)[C@H](O)[C@H](O)[C@H]1O [NGPG]" metric_name="Vm Ratio to ONPG" observed_value=3.7
compound="O=[N+]([O-])c1ccccc1O[C@@H]1O[C@H](CO)[C@H](O)[C@H](O)[C@H]1O [ONPG, o-nitrophenyl-β-D-galactopyranoside, reference compound]" metric_name="Vm Ratio to ONPG" observed_value=1.0
compound="O=[N+]([O-])c1ccc(O[C@@H]2O[C@H](CO)[C@H](O)[C@H](O)[C@H]2O)cc1[N+](=O)[O-] [3,4 DNPG, 3,4-Dinitrophenyl-β-D-galactopyranoside]" metric_name="Vm Ratio to ONPG" observed_value=3.5

Turning to the following compound.
What value of Vm Ratio to ONPG has been recorded for this entry: N#Cc1cc(O[C@@H]2O[C@H](CO)[C@H](O)[C@H](O)[C@H]2O)ccc1[N+](=O)[O-] [m-CN-NPG] 3.0

---

Experimental Protocol: Absorbance wavelength maximum and molar extinction coefficient of substrate and reaction product
Assay type: physicochemical
Measurement Setup: reaction product
Description: Table 1 gives the absorbance wavelength maximum (λmax) for the substrate and the reaction product, the molar extinction coefficient ε for the substrate and the reaction product, the solubility, and the spontaneous hydrolysis rate of the new substrates (stability). ONPG, the standard β-galactosidase substrate, is listed for comparision.
compounds and their reported Product λmax
# output: bare number, implied unit nm

compound=N#Cc1cc(O[C@@H]2O[C@H](CO)[C@H](O)[C@H](O)[C@H]2O)ccc1[N+](=O)[O-] observed_value=405
compound=COc1cc([N+](=O)[O-])ccc1O[C@@H]1O[C@H](CO)[C@H](O)[C@H](O)[C@H]1O observed_value=430
compound=O=Cc1cc([N+](=O)[O-])ccc1O[C@@H]1O[C@H](CO)[C@H](O)[C@H](O)[C@H]1O observed_value=382
compound="O=[N+]([O-])c1ccccc1O[C@@H]1O[C@H](CO)[C@H](O)[C@H](O)[C@H]1O [ONPG, o-nitrophenyl-β-D-galactopyranoside, reference compound]" observed_value=414

Param item = O=[N+]([O-])c1ccc(O[C@@H]2O[C@H](CO)[C@H](O)[C@H](O)[C@H]2O)cc1[N+](=O)[O-] [3,4 DNPG, 3,4-Dinitrophenyl-β-D-galactopyranoside] ; retrieve measured Product λmax. 400
